Test system: Mus musculus
protocol: Compound was evaluated for the percent increase in life span against M5076 sarcoma in mice at a sc dose of 300 mg/kg/day.
Type: functional
experimental_setup: route subcutaneous
Would you kindly list ILS at 300 mg/kg/day for each of these compounds?
Answers are plain numbers, in %.

Use these answered entries as a reference point.
compound: CCCCCCCC/C=C\CCCCCCCC(=O)OCC(COP(=O)([O-])OC[C@H]1O[C@@H](n2ccc(N)nc2=O)[C@@H](C#N)[C@@H]1O)OC(=O)CCCCCCC/C=C\CCCCCCCC.[Na+] (stereo partly drawn)
units_label: %
recorded_value: -58

compound: CCCCC/C=C\C/C=C\CCCCCCCC(=O)OCC(COP(=O)([O-])OC[C@H]1O[C@@H](n2ccc(N)nc2=O)[C@@H](C#N)[C@@H]1O)OC(=O)CCCCCCC/C=C\C/C=C\CCCCC.[Na+] (stereo partly drawn)
units_label: %
recorded_value: 15

For the next question, use this compound.
For the compound CCCCCCCCCCCCCCCC(=O)OCC(COP(=O)([O-])OC[C@H]1O[C@@H](n2ccc(N)nc2=O)[C@@H](C#N)[C@@H]1O)OC(=O)CCCCCCCCCCCCCCC.[Na+] (stereo partly drawn) , the measured ILS at 300 mg/kg/day on Mus musculus was 40

This collection of values is drawn from ChEMBL document CHEMBL1129023.
